Numbers sourced from ChEMBL document CHEMBL3991601.

- system: Cyclin-G-associated kinase (Homo sapiens, UniProt O14976); also: in the data inactive means no Kd found up to 30 µM
- Sequence (O14976 whole entry): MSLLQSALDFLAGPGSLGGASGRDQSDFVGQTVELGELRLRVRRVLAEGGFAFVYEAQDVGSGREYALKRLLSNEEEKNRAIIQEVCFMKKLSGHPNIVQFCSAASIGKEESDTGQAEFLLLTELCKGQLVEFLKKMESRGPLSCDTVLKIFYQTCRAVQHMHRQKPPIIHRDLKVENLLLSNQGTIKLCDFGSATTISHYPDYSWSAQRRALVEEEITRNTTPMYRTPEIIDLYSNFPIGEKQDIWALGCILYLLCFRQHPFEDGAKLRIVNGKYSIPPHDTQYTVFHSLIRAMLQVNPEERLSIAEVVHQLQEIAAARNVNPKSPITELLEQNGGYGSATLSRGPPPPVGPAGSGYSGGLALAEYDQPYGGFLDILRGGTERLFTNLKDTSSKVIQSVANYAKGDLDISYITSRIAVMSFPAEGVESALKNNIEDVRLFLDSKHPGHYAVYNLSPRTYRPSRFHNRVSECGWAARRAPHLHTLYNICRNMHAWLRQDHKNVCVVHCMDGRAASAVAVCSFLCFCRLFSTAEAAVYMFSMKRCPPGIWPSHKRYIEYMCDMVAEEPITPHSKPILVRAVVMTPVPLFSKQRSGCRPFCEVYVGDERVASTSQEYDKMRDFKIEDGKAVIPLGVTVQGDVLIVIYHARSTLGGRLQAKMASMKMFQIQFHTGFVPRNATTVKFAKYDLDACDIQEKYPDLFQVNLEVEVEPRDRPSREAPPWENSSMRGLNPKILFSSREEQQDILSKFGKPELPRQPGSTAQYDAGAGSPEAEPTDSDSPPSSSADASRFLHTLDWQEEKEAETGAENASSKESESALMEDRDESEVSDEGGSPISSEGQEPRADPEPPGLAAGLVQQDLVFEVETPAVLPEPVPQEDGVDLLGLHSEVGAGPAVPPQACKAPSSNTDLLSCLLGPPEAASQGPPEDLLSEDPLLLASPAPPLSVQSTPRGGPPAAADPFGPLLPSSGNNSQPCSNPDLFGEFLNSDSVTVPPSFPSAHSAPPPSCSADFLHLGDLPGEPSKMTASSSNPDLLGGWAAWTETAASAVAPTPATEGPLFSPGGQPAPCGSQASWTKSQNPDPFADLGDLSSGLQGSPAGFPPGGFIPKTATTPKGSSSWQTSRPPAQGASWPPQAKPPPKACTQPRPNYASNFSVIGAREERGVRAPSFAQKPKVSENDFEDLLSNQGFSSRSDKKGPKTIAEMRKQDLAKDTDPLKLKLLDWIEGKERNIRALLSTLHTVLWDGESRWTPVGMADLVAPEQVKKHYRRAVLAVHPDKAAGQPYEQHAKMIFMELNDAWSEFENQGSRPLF
Active and inactive are the calls of the source.
One label from this list, please: active, inactive

INSERT INTO results (molecule, assigned_label) VALUES
  ('O=c1sn(-c2cccc3ccccc23)c(=O)n1Cc1ccccc1 [TIDEGLUSIB]', 'inactive'),
  ('Cc1ccc(S(=O)(=O)Nc2nc3ccccc3nc2Nc2ccc3nsnc3c2)cc1', 'inactive'),
  ('OCCn1cc(-c2cnc3nnn(Cc4ccc5ncccc5c4)c3n2)cn1 [PF-04217903]', 'inactive'),
  ('Cn1cc(-c2ccc3nnc(C(F)(F)c4ccc5ncccc5c4)n3n2)cn1 [JNJ-38877605]', 'inactive'),
  ('CCCS(=O)(=O)Nc1ccc(F)c(C(=O)c2c[nH]c3ncc(-c4ccc(Cl)cc4)cc23)c1F [VEMURAFENIB]', 'inactive'),
  ('COC(=O)[C@@]1(O)C[C@H]2O[C@]1(C)n1c3ccccc3c3c4c(c5c6ccccc6n2c5c31)C(=O)NC4 [K-252A]', 'active');

Could you check what this test reported for CN1CC[C@@H](c2c(O)cc(O)c3c(=O)cc(-c4ccccc4Cl)oc23)[C@@H]1CO ?
inactive

For this molecule, state the assay outcome: Cc1cc([C@@H](C)Nc2ccccc2C(=O)O)c2nc(N3CCOCC3)cc(=O)n2c1 [AZD-6482]
inactive

Hello, I am checking results. What call was entered for CCc1cnn2c(NCc3ccc[n+]([O-])c3)cc(N3CCCC[C@H]3CCO)nc12 [DINACICLIB] ?
inactive
